- target_system: Receptor tyrosine-protein kinase erbB-4 (Homo sapiens) (UniProt Q15303)
- Sequence (Q15303 whole entry): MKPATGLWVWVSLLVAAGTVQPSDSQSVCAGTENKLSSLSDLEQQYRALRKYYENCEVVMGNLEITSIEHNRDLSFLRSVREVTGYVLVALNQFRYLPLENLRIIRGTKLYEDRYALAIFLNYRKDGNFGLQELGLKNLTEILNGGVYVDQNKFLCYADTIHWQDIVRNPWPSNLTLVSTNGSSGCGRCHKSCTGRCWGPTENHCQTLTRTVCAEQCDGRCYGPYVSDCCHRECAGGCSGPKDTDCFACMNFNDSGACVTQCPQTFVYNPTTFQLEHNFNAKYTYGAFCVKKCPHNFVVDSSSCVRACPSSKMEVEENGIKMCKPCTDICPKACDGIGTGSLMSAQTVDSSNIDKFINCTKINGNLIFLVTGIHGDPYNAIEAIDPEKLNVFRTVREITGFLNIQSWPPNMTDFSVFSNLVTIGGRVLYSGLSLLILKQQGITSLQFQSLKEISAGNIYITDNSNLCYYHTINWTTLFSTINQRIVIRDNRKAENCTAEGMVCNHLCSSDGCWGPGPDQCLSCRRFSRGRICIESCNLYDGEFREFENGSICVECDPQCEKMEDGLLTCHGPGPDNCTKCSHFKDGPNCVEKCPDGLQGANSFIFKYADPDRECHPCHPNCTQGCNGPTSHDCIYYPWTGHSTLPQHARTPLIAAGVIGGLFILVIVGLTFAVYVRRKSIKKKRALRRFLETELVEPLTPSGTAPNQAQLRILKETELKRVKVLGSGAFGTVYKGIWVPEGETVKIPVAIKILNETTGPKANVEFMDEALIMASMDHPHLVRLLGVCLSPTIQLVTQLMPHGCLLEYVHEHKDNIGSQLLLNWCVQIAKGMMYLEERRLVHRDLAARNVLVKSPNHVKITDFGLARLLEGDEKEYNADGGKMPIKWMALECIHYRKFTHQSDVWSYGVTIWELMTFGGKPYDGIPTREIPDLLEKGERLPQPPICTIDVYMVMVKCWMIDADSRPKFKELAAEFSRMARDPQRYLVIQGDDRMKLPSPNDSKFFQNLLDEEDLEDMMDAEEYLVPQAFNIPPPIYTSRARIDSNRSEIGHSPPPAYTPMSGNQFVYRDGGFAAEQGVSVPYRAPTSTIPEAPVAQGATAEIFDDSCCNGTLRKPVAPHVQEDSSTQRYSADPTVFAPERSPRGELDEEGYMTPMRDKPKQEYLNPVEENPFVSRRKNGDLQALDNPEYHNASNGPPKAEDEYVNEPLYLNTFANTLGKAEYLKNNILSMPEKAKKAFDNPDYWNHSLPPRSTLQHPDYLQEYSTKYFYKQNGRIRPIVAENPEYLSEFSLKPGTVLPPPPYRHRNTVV
- experimental_context: at 1 µM
Would you kindly list inhibition for each of these compounds?
Answers are plain numbers, in %.

compound: N#Cc1c(NC(=O)c2cccc3ccccc23)sc2c1CCCC2
target_system: Receptor tyrosine-protein kinase erbB-4 (Homo sapiens) (UniProt Q15303);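 further: each value is a mean percent inhibition of ERBB4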
inhibition / %: 8.55

// each listed compound needs a value for inhibition
1. CCN1CCC(CC(=O)Nc2n[nH]c3nc(-c4cccs4)c(Br)cc23)CC1
2. COC(=O)Nc1nc2cc(Oc3cccc(NC(=O)Nc4cc(C(F)(F)F)ccc4F)c3)ccc2[nH]1

# output
[-7.08, 6.3]

// each listed compound needs a value for inhibition
1. COc1cc2ncn(-c3cc(O[C@H](C)c4ccccc4Cl)c(C(N)=O)s3)c2cc1OC
2. COc1ccccc1Nc1ncc(-c2ccccc2)o1
3. Nc1ncnc2occ(-c3ccc(NC(=O)Nc4cccc(C(F)(F)F)c4)cc3)c12
4. COc1cccc(-n2ncc3c(N/N=C/c4cccc(F)c4)ncnc32)c1
5. CS(=O)(=O)CCNCc1nc(-c2ccc3ncnc(Nc4ccc(F)c(Cl)c4)c3c2)cs1
6. CC1=C(C(=O)Nc2ccc3[nH]ncc3c2)C(c2ccc(F)cc2)NC(=O)N1 (stereo not given)

# output
1: 14; 2: 15.7; 3: 15.2; 4: 2.68; 5: 83.1; 6: 5.19

Sure, the documented inhibition for COc1ccc2cc(-c3c(-c4ccncc4)nc(-c4ccc([S+](C)[O-])cc4)n3C)ccc2c1 (stereo not given) is 23.1

---

- target_system: Tyrosine-protein kinase JAK3 (Homo sapiens) (UniProt P52333)
- Sequence (whole entry): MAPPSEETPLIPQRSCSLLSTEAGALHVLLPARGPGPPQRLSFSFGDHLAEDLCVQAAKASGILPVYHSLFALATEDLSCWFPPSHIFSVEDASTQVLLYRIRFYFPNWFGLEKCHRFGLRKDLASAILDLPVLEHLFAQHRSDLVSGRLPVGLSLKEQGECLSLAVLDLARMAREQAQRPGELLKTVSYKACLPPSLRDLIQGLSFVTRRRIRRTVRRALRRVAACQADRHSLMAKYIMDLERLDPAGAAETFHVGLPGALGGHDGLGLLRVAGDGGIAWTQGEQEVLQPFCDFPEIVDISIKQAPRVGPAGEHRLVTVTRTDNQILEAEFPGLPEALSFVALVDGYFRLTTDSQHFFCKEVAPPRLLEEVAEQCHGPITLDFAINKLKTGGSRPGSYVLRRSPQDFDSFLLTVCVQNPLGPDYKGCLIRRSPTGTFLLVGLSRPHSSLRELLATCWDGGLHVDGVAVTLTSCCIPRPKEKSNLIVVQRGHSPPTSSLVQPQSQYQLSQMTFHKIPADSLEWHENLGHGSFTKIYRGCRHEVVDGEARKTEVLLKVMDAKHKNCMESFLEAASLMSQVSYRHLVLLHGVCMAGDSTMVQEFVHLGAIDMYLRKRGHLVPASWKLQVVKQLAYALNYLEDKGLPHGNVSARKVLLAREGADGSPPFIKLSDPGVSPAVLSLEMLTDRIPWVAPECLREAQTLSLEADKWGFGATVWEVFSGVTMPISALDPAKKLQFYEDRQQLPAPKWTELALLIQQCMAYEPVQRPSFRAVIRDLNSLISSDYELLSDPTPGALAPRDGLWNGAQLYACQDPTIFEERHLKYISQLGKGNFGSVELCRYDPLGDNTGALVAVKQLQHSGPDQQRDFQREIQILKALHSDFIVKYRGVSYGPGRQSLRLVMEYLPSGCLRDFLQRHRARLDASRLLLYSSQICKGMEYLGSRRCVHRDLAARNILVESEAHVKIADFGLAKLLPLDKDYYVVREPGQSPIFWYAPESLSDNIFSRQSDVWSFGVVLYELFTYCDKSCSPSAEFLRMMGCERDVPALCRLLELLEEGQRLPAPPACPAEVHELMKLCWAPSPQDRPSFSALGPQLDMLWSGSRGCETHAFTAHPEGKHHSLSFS
- experimental_context: at 1 µM
- Description: GSK_PKIS: JAK3 mean inhibition at 1 uM [Nanosyn]
Would you kindly list inhibition for each of these molecules?
Numbers only, in %.

// each listed molecule needs a value for inhibition
1. CCN1CCC(CC(=O)Nc2n[nH]c3nc(-c4cccs4)c(Br)cc23)CC1
2. [O-][S+]1CCN(Cc2ccc(-c3ccc4ncnc(Nc5ccc(OCc6ccccc6)c(F)c5)c4c3)o2)CC1
3. CCn1c(-c2nonc2N)nc2ccncc21
4. NC(=O)c1cccc(Nc2nccc(Nc3cccc4[nH]ncc34)n2)c1
5. CCn1c(-c2nonc2N)nc2cncc(C(=O)N3CCNCC3)c21

# output
[2.19, -0.11, 2.73, 25.2, -0.7]
